Parameter: hERG current change (%, negative = inhibition) at 10uM. Scope: all listed entries.
Target: human ether-à-go-go-related gene (hERG) potassium channel (human, UniProt Q12809);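 also: peak tail current of the secondary pulse compared with the same well before compound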
Sequence (Q12809 whole entry, looked up): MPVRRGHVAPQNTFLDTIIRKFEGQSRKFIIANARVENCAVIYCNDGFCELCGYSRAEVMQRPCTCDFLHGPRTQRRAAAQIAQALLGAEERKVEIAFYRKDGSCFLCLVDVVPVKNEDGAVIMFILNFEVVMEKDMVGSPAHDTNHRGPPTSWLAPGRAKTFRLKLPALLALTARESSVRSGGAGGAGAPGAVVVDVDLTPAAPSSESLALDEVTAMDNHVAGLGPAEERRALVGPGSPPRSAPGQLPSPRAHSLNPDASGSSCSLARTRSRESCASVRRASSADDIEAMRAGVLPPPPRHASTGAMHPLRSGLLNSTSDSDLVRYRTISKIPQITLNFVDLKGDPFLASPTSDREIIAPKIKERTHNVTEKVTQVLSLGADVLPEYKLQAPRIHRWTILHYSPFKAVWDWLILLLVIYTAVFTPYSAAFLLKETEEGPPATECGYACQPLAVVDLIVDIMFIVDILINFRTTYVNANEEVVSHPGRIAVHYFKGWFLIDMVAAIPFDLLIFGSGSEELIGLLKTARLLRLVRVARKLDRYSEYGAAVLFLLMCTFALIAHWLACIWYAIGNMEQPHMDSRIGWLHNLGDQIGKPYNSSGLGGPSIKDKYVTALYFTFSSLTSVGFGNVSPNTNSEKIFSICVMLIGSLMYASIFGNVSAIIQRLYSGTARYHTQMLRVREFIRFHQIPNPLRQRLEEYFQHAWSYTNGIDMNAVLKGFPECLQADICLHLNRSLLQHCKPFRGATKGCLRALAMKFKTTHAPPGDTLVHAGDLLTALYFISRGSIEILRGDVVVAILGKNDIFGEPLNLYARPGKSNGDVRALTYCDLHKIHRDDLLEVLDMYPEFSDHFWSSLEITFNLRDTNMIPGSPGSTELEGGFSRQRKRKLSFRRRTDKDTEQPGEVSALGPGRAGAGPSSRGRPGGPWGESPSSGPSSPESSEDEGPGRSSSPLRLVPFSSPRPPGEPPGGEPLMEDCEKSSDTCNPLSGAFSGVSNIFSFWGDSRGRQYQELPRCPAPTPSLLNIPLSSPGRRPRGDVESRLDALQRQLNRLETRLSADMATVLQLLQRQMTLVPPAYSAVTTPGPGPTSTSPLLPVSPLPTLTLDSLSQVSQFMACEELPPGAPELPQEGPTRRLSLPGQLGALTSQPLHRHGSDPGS
Experiment: primary screen, population patch clamp on CHO cells stably expressing hERG; higher = less effect of the substance
The campaign covered roughly 310,000 compounds. About 14,000 (4.5%) showed an effect of 50% or more. The effect is printed as a negative number. The list comes from a sample in which strong results are over-represented; it also holds close analogues and randomly drawn compounds.
Supply the numeric figure in %, leaving out any unit text.

COc1ccc(-n2c(C)c(C)c3c(NCCN(C)C)ncnc32)cc1; -32.4
O=C(COc1ccc(S(=O)(=O)N2CCOCC2)cc1)NCC1CCCO1 (centres unmarked); -15.1
COc1ccc(S(=O)(=O)N2CCN(Cc3cc(OC)c(O)c(OC)c3)CC2)cc1.O=C(O)C(=O)O; 4.57
Cc1c(C)n(Cc2ccccc2)c2ncnc(NCCCN(C)C)c12; -28.4
COc1ccc(-n2c(C)c(C)c3c(NCCCO)ncnc32)cc1; -14.3
O=C1CN(c2ccc(Cl)cc2)C2(CCCCC2)S1; 4.49

We now examine a further compound.
Exam item: State its hERG current change (%, negative = inhibition) at 10uM for this compound: Cc1ccc(NC(=O)c2ccc(Cl)c(S(=O)(=O)N3CCCC3)c2)nc1
Marked response: -8.97

---

Parameter: hERG current change (%, negative = inhibition) at 10uM. Scope: all listed entries.
Biological target: human ether-à-go-go-related gene (hERG) potassium channel (human, UniProt Q12809);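 also: peak tail current of the secondary pulse compared with the same well before compound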
Experiment: primary screen, population patch clamp on CHO cells stably expressing hERG; higher = less effect of the substance
The whole screen tested about 310,000 compounds, of which about 14,000 (4.5%) showed an effect of 50% or more. Effects have a minus sign here. What follows is part of a selection rich in strong results, with near analogues and random picks from the rest.
Supply the numeric figure in %, leaving out any unit text.

CCOc1ccc(C(CC(=O)O)NC(=O)C23CC4CC(CC(C4)C2)C3)cc1OC (centres unmarked); 30.2

Exam item: State its hERG current change (%, negative = inhibition) at 10uM for this molecule: CCOC(=O)C1CCCc2c1[nH]c1c(C(=O)O)cccc21 (centres unmarked)
Marked response: 13.3

---

Molecular target: human ether-à-go-go-related gene (hERG) potassium channel (human, UniProt Q12809);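 also: peak tail current of the secondary pulse compared with the same well before compound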
Assay: primary screen, population patch clamp on CHO cells stably expressing hERG; higher = less effect of the substance
Protocol: Briefly, Chinese hamster ovary (CHO) cells stably expressing the hERG channel were dislodged from tissue culture flasks and dispensed into PPC plates. […] During the recording, background leak currents were estimated by a 100 ms step to -80 mV from an initial holding potential of -70 mV and subtracted from the subsequent current measurement. The campaign was conducted in two phases using slight differences in recording protocol. […]
Screen size: about 310,000 compounds; about 14,000 (4.5%) showed an effect of 50% or more. Effects have a minus sign here. For the sample, strong results were picked, then their nearest neighbours and some compounds at random.
observable: hERG current change (%, negative = inhibition) at 10uM (%)
Supply the numeric figure in %, leaving out any unit text.

COc1ccc([N+](=O)[O-])cc1NC(=O)C(C)OC(=O)C1CC(=O)N(Cc2ccco2)C1 (centres unmarked); -57.4
CCc1noc(C)c1C(=O)OC(C)C(=O)Nc1cc([N+](=O)[O-])ccc1OC (centres unmarked); -53.1
CC(OC(=O)C1CC(=O)N(Cc2ccco2)C1)C(=O)Nc1ccccc1[N+](=O)[O-] (centres unmarked); -19.1
CN(C)c1cc(NC(=O)CNC(C)(C)C)c2ccccc2n1.O=C(O)C(=O)O; -24.4

We now examine a further molecule.
Exam item: State its hERG current change (%, negative = inhibition) at 10uM for this molecule: O=c1ccnc(SCCc2ccc([N+](=O)[O-])cc2)[nH]1
Marked response: -34
